systemUnderTest: UniProt P28845
procedureText: Inhibition constant Ki of human 11b-hsd-1 (3H-cortisone to 3H-cortisol conversion, HPLC)
Format: biochemical
reportedConditions: compound at 0.1 μM
readout: inhibition at 0.1 µM (%)

> print(dat)
                                   molecule  systemundertest               readout  quantitativereadout
1      COC(C)(C)CN1CCC[C@@H]1C(=O)NC1CCCCC1   UniProt P28845  inhibition at 0.1 µM                   94
2  CC1(C)CC(NC(=O)C2COCCN2Cc2cccc(OC(F)F)c2)CC(C)(C)C1 (centres unmarked)   UniProt P28845  inhibition at 0.1 µM                  100
3  CCCN1CCC[C@@H]1C(=O)N[C@H]1C[C@@H]2CC[C@H]1C2   UniProt P28845  inhibition at 0.1 µM                  100
4             CCCN1CCC[C@@H]1C(=O)NCC1CCCC1   UniProt P28845  inhibition at 0.1 µM                   86
5  O=C(NC1C2CC3CC(C2)CC1C3)[C@H]1CCCN1C[C@H]1CCCN1 (some centres unmarked)   UniProt P28845  inhibition at 0.1 µM                  100
6        CCCN1CCC[C@@H]1C(=O)NC1Cc2ccccc2C1   UniProt P28845  inhibition at 0.1 µM                 90.4
7  CC(C)(C)OC(=O)N1CCC[C@@H]1CN1CCC[C@@H]1C(=O)NC1C2CC3CC(C2)CC1C3 (some centres unmarked)   UniProt P28845  inhibition at 0.1 µM                  100
8  CN(CCN1CCC[C@@H]1C(=O)NC1C2CC3CC(C2)CC1C3)Cc1ccccc1 (some centres unmarked)   UniProt P28845  inhibition at 0.1 µM                  100

###

systemUnderTest: human 11b-hsd-1 (Homo sapiens, UniProt P28845)
Sequence (P28845 whole entry): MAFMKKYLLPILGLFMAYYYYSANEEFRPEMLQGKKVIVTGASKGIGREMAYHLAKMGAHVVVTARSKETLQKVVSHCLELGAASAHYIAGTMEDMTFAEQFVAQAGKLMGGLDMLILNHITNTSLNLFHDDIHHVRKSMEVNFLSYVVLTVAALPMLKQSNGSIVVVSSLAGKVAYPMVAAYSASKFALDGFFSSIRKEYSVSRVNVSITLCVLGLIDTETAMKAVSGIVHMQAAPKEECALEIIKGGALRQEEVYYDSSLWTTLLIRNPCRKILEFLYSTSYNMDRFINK
procedureText: Inhibition constant Ki of human 11b-hsd-1 (3H-cortisone to 3H-cortisol conversion, HPLC)
Assay type: biochemical
reportedConditions: 0.1 μM compound
inhibition at 0.1 µM below 90% gives NO; inhibition at 0.1 µM at or above it gives YES.

> print(dat)
                                    compound  qualitativelabel
 1     O=C(NCc1ccccc1F)[C@H]1CCCN1CCC(F)(F)F                NO
 2  O=C(NC1CCCCC1)[C@@H]1C[C@H](Oc2cc(F)ccc2F)CN1                NO
 3  O=C(NC12CC3CC(CC(C3)C1)C2)[C@H]1CCCN1Cc1ccccc1               YES
 4  O=C(NCc1ccccc1)C1COCCN1CC1CCCCC1 (stereo not shown)                NO
 5  O=C(NC1C2CC3CC(C2)CC1C3)[C@@H]1NCC[C@H]1c1ccccc1 (stereo partly shown)               YES
 6       CC(C)CN1CCC[C@@H]1C(=O)NCC1(O)CCCC1                NO
 7  Cc1cc(F)ccc1O[C@@H]1CN[C@H](C(=O)NC2C3CC4CC(C3)CC2C4)C1 (stereo partly shown)               YES
 8  Cc1ccc(O[C@@H]2CN[C@H](C(=O)NC3C4CC5CC(C4)CC3C5)C2)cn1 (stereo partly shown)               YES
 9    O=C(NCc1ccccc1Cl)[C@H]1CCCN1CCc1ccccc1                NO
10  CC(C)CN1CSC[C@@H]1C(=O)NC12CC3CC(CC(C3)C1)C2               YES
11   O=C(NCc1ccc(F)cc1F)[C@H]1CCCN1Cc1ccccc1                NO
12        COc1ccccc1CNC(=O)[C@H]1CCCN1CC(C)C               YES
13           CCCN1CCOC[C@@H]1C(=O)NCC1CCCCC1               YES
14    CN(C(=O)[C@H]1COCCN1Cc1ccccc1)C1CCCCC1                NO
15  CC(C)CN1[C@H]2CC[C@H](C2)[C@@H]1C(=O)NC12CC3CC(CC(C3)C1)C2 (relative stereo)               YES
16   O=C(NCc1ccc(F)cc1)[C@H]1COCCN1Cc1ccccc1                NO
17    O=C(NC1Cc2ccccc2C1)[C@H]1CCCN1CC1CCCC1               YES
18    O=C(NCc1ccc(F)cc1)[C@H]1CCCN1Cc1ccccc1                NO
19  Cc1cc(C)cc(O[C@@H]2CN[C@H](C(=O)NC3C4CC5CC(C4)CC3C5)C2)c1 (stereo partly shown)               YES
20   CN(Cc1ccccc1)C(=O)[C@H]1COCCN1Cc1ccccc1                NO
21    O=C(NCc1ccccc1Cl)[C@H]1CCCN1CCC(F)(F)F                NO
22  Cc1ccccc1CNC(=O)[C@H]1CCCN1Cc1ccc(C#N)cc1                NO
23  CCC1CCCCN1C(=O)C1CCCCN1Cc1ccc(Cl)cc1 (stereo not shown)                NO
24     COc1ccccc1CNC(=O)[C@H]1CCCN1Cc1ccccc1                NO
25  CCC1CCCCN1C(=O)[C@H]1CCCN1Cc1ccc(Cl)cc1 (stereo partly shown)                NO
26  O=C(N[C@@H]1CCc2ccccc21)[C@H]1COCCN1Cc1ccccc1                NO
27  N#Cc1ccc(CN2CCOC[C@@H]2C(=O)NCC2CCCCC2)cc1               YES
28  O=C(NC1C2CC3CC(C2)CC1C3)[C@@H]1C[C@H](Oc2c(F)cc(F)cc2F)CN1 (stereo partly shown)               YES
29  CCc1ccc(O[C@@H]2CN[C@H](C(=O)NC3C4CC5CC(C4)CC3C5)C2)c(OC)c1 (stereo partly shown)               YES
30  O=C(NC1CCCCC1)[C@@H]1C[C@H](Oc2c(F)cc(F)cc2F)CN1               YES
